Data provenance is patent US10653739B2.

System: MDA-MB-468 breast cancer cell line
Assay Notes: MTS IC50, MDA-MB-468 breast cancer cell line
Type: cell-based
Recorded Conditions: Homo sapiens, individual SLs
Metric: IC50 (nM)
Response body: numeric value in nM, unit text excluded.

Molecule: C=C1C(=O)O[C@@H]2[C@H]1CC[C@H](C)C1=CCC(=O)[C@]12C (single isomer, unassigned)
Target Of Assay: MDA-MB-468 breast cancer cell line
Unit Symbol: nM
IC50: 9080
//
Molecule: C=C1C(=O)O[C@@H]2[C@H]1CC[C@H](C)[C@]1(O)C=CC(=O)[C@@]21C (single isomer, unassigned)
Target Of Assay: MDA-MB-468 breast cancer cell line
Unit Symbol: nM
IC50: 1230
//
Molecule: C=C1C(=O)O[C@@H]2[C@H]1CC[C@H](C)[C@@H]1CCC(=O)[C@@]21C (single isomer, unassigned)
Target Of Assay: MDA-MB-468 breast cancer cell line
Unit Symbol: nM
IC50: 935

Now look at this one.
// C=C1C(=O)O[C@@H]2[C@H]1CC[C@H](C)[C@@H]1C=CC(=O)[C@@]21C (single isomer, unassigned) : IC50 value = 882
